assay: small molecules captured by biotinylated probe aFGF10 – biochemical, small-molecule microarray, fluorescence 635/667, stem cell growth factor project, primary screen (AID 1071); settings: higher = more signal;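 note: score merges 667 nm spot intensity and signal to noise from triplicate slides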
Decide using composite z-score: a value greater than or equal to -0.2 is yes, a smaller one is no.

QUERY: Identify whether the reported composite z-score of the following compound is -0.2 or greater: CC(C)N1C(=O)C[C@@](C(=O)O)(c2ccc([N+](=O)[O-])cc2)[C@H]1c1ccc(CO)cc1
RESULT: yes

QUERY: Hi, just wondering whether COc1ccccc1CN1C(=O)c2ccccc2[C@](Cc2ccccc2I)(C(=O)O)[C@@H]1c1ccc(CO)cc1 shows composite z-score of -0.2 or higher.
RESULT: yes

QUERY: Does O=C1OCCC=C[C@H]2OC34C=CCN(Cn5nnc6ccccc65)C(=O)[C@H]3N(CCCO)C(=O)[C@@H]4C12 (some centres undefined) have a reported composite z-score of at least -0.2?
RESULT: yes

QUERY: Does composite z-score meet or surpass -0.2 for COC(=O)[C@@]1(Cc2ccccc2)[C@H]2c3cc(C(=O)N(C)C)n(Cc4ccc(C)o4)c3C[C@H]2CN1C(=O)c1ccccc1 ?
RESULT: yes

QUERY: Given CC1CC/C=C\[C@H]2OC34C=CCN(c5ccc6ccccc6c5)C(=O)[C@H]3N(CCCO)C(=O)[C@@H]4C2C(=O)O1 (some centres undefined) , state whether its composite z-score is at least -0.2.
RESULT: no

QUERY: Dear colleague, could you confirm whether [N-]=[N+]=Nc1ccccc1C[C@]1(C(=O)N2CCOCC2)COC(c2ccc(OCCCO)cc2)=N1 has composite z-score at or above -0.2?
RESULT: yes

QUERY: Check if composite z-score >= -0.2 (inclusive). Item: C=CCC(OC(C)=O)[C@@H]1[C@@H](N(Cc2ccc(-c3cccc(C(F)(F)F)c3)o2)C(=O)c2ccc(-c3ccccc3)cc2)c2cc(OCCCO)ccc2N1C(=O)Cc1ccc2ccccc2c1 (some centres undefined)
RESULT: no

QUERY: Does the compound COCCOC(=O)N1C(=O)[C@@]2(c3cc(C#CC4=CCCCC4)ccc31)[C@H](C(=O)Nc1nc3ccccc3s1)[C@H]1C(=O)O[C@H](c3ccccc3)[C@H](c3ccccc3)N1[C@@H]2c1ccc(O)cc1 have recorded composite z-score that is -0.2 or more?
RESULT: yes

QUERY: Determine whether measured composite z-score meets or exceeds -0.2 for CCOC(=O)C1=CC[C@@H](c2ccccc2)N(S(=O)(=O)c2ccc(C)cc2)[C@H]1c1ccccc1
RESULT: yes
